This section lists log10(GI50) readings for A549.
Hello, just confirming the data are log10 of GI50 with units of µg/mL.

Recorded results for 5 compounds are shown here.
* Cc1cccc(-c2cc(-c3ccccn3)nc(N[C@@H]3O[C@H](CO)[C@@H](O)[C@H](O)[C@H]3O)n2)c1 | 1.29
* Cc1cccc(-c2cc(-c3ccncc3)nc(N[C@@H]3O[C@H](CO)[C@@H](O)[C@H](O)[C@H]3O)n2)c1 | 2.28
* CC(=O)OC[C@H]1O[C@@H](Nc2nc(-c3ccc(C)cc3)cc(-c3ccccn3)n2)[C@H](OC(C)=O)[C@@H](OC(C)=O)[C@@H]1OC(C)=O | 1.38
* Cc1ccccc1-c1cc(-c2cccnc2)nc(N[C@@H]2O[C@H](CO)[C@@H](O)[C@H](O)[C@H]2O)n1 | 1.06
* Cc1cccc(-c2cc(-c3cccnc3)nc(N[C@@H]3O[C@H](CO)[C@@H](O)[C@H](O)[C@H]3O)n2)c1 | 1.37

Attention now turns to another entry.
-- ask Dear colleague, please send me the reported log10(GI50) for Cc1ccc(-c2cc(-c3ccccn3)nc(N[C@@H]3O[C@H](CO)[C@@H](O)[C@H](O)[C@H]3O)n2)cc1 when you can.
-- reply 2.10
